Where do the numbers come from? From patent US8003773B2.

Tested on: peptide loaded RMA-B7 target cells
runDescription: Peptide immunization of HLA-*B0702 transgenic mice for CTL induction, 51Cr release assay
Assay type: in vivo
conditionInfo: HLA-*B0702 transgenic mice

>  <monomerSequence>
RPSFLLSSL [p342]

>  <CTL response after peptide immunization>
moderate specific CTL

$$$$
>  <monomerSequence>
RPAEEATSL [p277]

>  <CTL response after peptide immunization>
moderate specific CTL

$$$$
